experiment: Long-term stability in spiked pooled human plasma; details: validation standard 2xLLOV
EXPERIMENTAL_READOUT: Long-term stability, 1 month, -80°C Accuracy [%] (%)
Report as a plain number; the unit % is understood.

CNC(=O)c1ccc(N2C(=S)N(c3ccc(C#N)c(C(F)(F)F)c3)C(=O)C2(C)C)cc1F [Enzalutamide]    87.8

Q: Tell me Long-term stability, 1 month, -80°C Accuracy [%] reported for O=C(c1ccc(F)c(F)c1Nc1ccc(I)cc1F)N1CC(O)([C@@H]2CCCCN2)C1 [Cobimetinib]
Ans: 93.9

Q: Specify Long-term stability, 1 month, -80°C Accuracy [%] for Cn1cnc2c(F)c(Nc3ccc(Br)cc3F)c(C(=O)NOCCO)cc21 [Binimetinib] and stop.
Ans: 97.4

Q: Using the record for CCN(CC)CCNC(=O)c1c(C)[nH]c(/C=C2\C(=O)Nc3ccc(F)cc32)c1C [Sunitinib] , state its measured Long-term stability, 1 month, -80°C Accuracy [%].
Ans: 108.5

Q: Identify measured Long-term stability, 1 month, -80°C Accuracy [%] associated with COc1cc2nccc(Oc3ccc(NC(=O)C4(C(=O)Nc5ccc(F)cc5)CC4)cc3)c2cc1OC [Cabozantinib]
Ans: 92.5

Q: // Input: C=CC(=O)Nc1cc(Nc2nccc(-c3cn(C)c4ccccc34)n2)c(OC)cc1N(C)CCN(C)C [Osimertinib] . Output its Long-term stability, 1 month, -80°C Accuracy [%] only.
Ans: 93.2

Q: Give the reported Long-term stability, 1 month, -80°C Accuracy [%] for this compound. Cc1nc(Nc2ncc(C(=O)Nc3c(C)cccc3Cl)s2)cc(N2CCN(CCO)CC2)n1 [Dasatinib]
Ans: 92.5
